Tested on: Klebsiella pneumoniae
Method Notes: Antibacterial activity against Klebsiella pneumoniae 1000-02
Format: functional
Each record here notes measured MIC.

Smiles Input	Readout Relation	MIC / µg/mL
CC(C)(O/N=C(\C(=O)N[C@H]1CN(C(=O)[N-]S(=O)(=O)n2nc(-c3cc(=O)c(O)c[nH]3)n(C[C@@H](O)CO)c2=O)C1=O)c1csc(N)n1)C(=O)[O-].[Na+].[Na+]	=	0.5
C[C@@H](O)[C@H]1C(=O)N2C(C(=O)O)=C(S[C@@H]3CN[C@H](C(=O)N(C)C)C3)[C@H](C)[C@H]12	<	1
C[C@@H](O)Cn1c(-c2cc(=O)c(O)c[nH]2)nn(S(=O)(=O)[N-]C(=O)N2C[C@H](NC(=O)/C(=N\OC(C)(C)C(=O)[O-])c3csc(N)n3)C2=O)c1=O.[Na+].[Na+]	=	0.5

====

Each record here notes measured MIC.
Tested on: Acinetobacter baumannii
Method Notes: Antibacterial activity against Acinetobacter baumannii AB-3167
Assay type: functional

Compound	MIC (µg/mL)
C[C@H](O)Cn1c(-c2cc(=O)c(O)c[nH]2)nn(S(=O)(=O)[N-]C(=O)N2C(=O)[C@@H](NC(=O)/C(=N\OC(C)(C)C(=O)[O-])c3csc(N)n3)[C@@H]2C)c1=O.[Na+].[Na+]	4
C[C@H]1[C@H](NC(=O)/C(=N\OC(C)(C)C(=O)O)c2csc(N)n2)C(=O)N1S(=O)(=O)O [AZTREONAM]	32
C[C@H](O)Cn1c(-c2cc(=O)c(O)c[nH]2)nn(S(=O)(=O)[N-]C(=O)N2C[C@H](NC(=O)/C(=N\OC(C)(C)C(=O)[O-])c3csc(N)n3)C2=O)c1=O.[Na+].[Na+]	1
CC(C)(O/N=C(\C(=O)N[C@H]1CN(C(=O)[N-]S(=O)(=O)n2nc(-c3cc(=O)c(O)c[nH]3)n(CC(N)=O)c2=O)C1=O)c1csc(N)n1)C(=O)[O-].[Na+].[Na+]	1
COCCn1c(-c2cc(=O)c(O)c[nH]2)nn(S(=O)(=O)[N-]C(=O)N2C[C@H](NC(=O)/C(=N\OC(C)(C)C(=O)[O-])c3csc(N)n3)C2=O)c1=O.[Na+].[Na+]	4

====

Test system: Klebsiella pneumoniae
Method Notes: Antibacterial activity against Klebsiella pneumoniae 1000-02
Type: functional
Quantity Name: MIC (µg/mL)

Smiles Input	Quantity Name	Measurement Units	Measured
CC(C)(O/N=C(\C(=O)N[C@H]1CN(C(=O)[N-]S(=O)(=O)n2nc(-c3cc(=O)c(O)c[nH]3)n(C[C@H](O)CO)c2=O)C1=O)c1csc(N)n1)C(=O)[O-].[Na+].[Na+]	MIC	µg/mL	0.5
C[C@H]1[C@H](NC(=O)/C(=N\OC(C)(C)C(=O)[O-])c2csc(N)n2)C(=O)N1C(=O)[N-]S(=O)(=O)n1nc(-c2cc(=O)c(O)c[nH]2)n(C[C@@H](O)CO)c1=O.[Na+].[Na+]	MIC	µg/mL	0.5
CC(C)(O/N=C(\C(=O)N[C@H]1CN(C(=O)[N-]S(=O)(=O)n2nc(-c3cc(=O)c(O)c[nH]3)n(CC(N)=O)c2=O)C1=O)c1csc(N)n1)C(=O)[O-].[Na+].[Na+]	MIC	µg/mL	1

====

Each record here notes measured MIC.
System: Klebsiella pneumoniae
Method Notes: Antibacterial activity against Klebsiella pneumoniae 1000-02
Format: functional

Smiles Input	MIC (µg/mL)
Cn1c(-c2cc(=O)c(O)c[nH]2)nn(S(=O)(=O)[N-]C(=O)N2C[C@H](NC(=O)/C(=N\OC(C)(C)C(=O)[O-])c3csc(N)n3)C2=O)c1=O.[Na+].[Na+]	0.5
C[C@H](O)Cn1c(-c2cc(=O)c(O)c[nH]2)nn(S(=O)(=O)[N-]C(=O)N2C[C@H](NC(=O)/C(=N\OC(C)(C)C(=O)[O-])c3csc(N)n3)C2=O)c1=O.[Na+].[Na+]	0.25
CC(C)(O/N=C(\C(=O)N[C@H]1CN(C(=O)[N-]S(=O)(=O)n2nc(-c3cc(=O)c(O)c[nH]3)n(C[C@@H]3CCCO3)c2=O)C1=O)c1csc(N)n1)C(=O)[O-].[Na+].[Na+]	0.5
COCCn1c(-c2cc(=O)c(O)c[nH]2)nn(S(=O)(=O)[N-]C(=O)N2C[C@H](NC(=O)/C(=N\OC(C)(C)C(=O)[O-])c3csc(N)n3)C2=O)c1=O.[Na+].[Na+]	0.5
C[C@H](O)Cn1c(-c2cc(=O)c(O)c[nH]2)nn(S(=O)(=O)[N-]C(=O)N2C(=O)[C@@H](NC(=O)/C(=N\OC(C)(C)C(=O)[O-])c3csc(N)n3)[C@@H]2C)c1=O.[Na+].[Na+]	1

====

System: Pseudomonas aeruginosa
Method Notes: Antibacterial activity against imipenem-sensitive Pseudomonas aeruginosa isolate 1091-05 infected in sc dosed neutropenic-C3H/HeN mouse assessed as mouse survival administered 4 hrs post infection followed by BID dosing for two days measured on day 10
Type: functional
Condition Parameters: isolate 1091-05, sc, read-out: PD50
Each record here notes measured ED50.
Quantity Name: ED50 (mg/kg)

Compound	Assay System	Measurement Units	Readout Relation	Measured
Cn1c(-c2cc(=O)c(O)c[nH]2)nn(S(=O)(=O)[N-]C(=O)N2C[C@H](NC(=O)/C(=N\OC(C)(C)C(=O)[O-])c3csc(N)n3)C2=O)c1=O.[Na+].[Na+]	Pseudomonas aeruginosa	mg/kg	>	150
C[C@@H](O)Cn1c(-c2cc(=O)c(O)c[nH]2)nn(S(=O)(=O)[N-]C(=O)N2C[C@H](NC(=O)/C(=N\OC(C)(C)C(=O)[O-])c3csc(N)n3)C2=O)c1=O.[Na+].[Na+]	Pseudomonas aeruginosa	mg/kg	=	32.7
C[C@@H](O)[C@H]1C(=O)N2C(C(=O)O)=C(S[C@@H]3CN[C@H](C(=O)N(C)C)C3)[C@H](C)[C@H]12 [MEROPENEM]	Pseudomonas aeruginosa	mg/kg	=	1.04
CC(C)(O/N=C(\C(=O)N[C@H]1CN(C(=O)[N-]S(=O)(=O)n2nc(-c3cc(=O)c(O)c[nH]3)n(CC(N)=O)c2=O)C1=O)c1csc(N)n1)C(=O)[O-].[Na+].[Na+]	Pseudomonas aeruginosa	mg/kg	=	25
CC(C)(O/N=C(\C(=O)N[C@H]1CN(C(=O)[N-]S(=O)(=O)n2nc(-c3cc(=O)c(O)c[nH]3)n(C[C@@H](O)CO)c2=O)C1=O)c1csc(N)n1)C(=O)[O-].[Na+].[Na+]	Pseudomonas aeruginosa	mg/kg	=	20.6
C[C@H]1[C@H](NC(=O)/C(=N\OC(C)(C)C(=O)O)c2csc(N)n2)C(=O)N1S(=O)(=O)O [AZTREONAM]	Pseudomonas aeruginosa	mg/kg	>	200

====

Test system: Pseudomonas aeruginosa
Method Notes: Antibacterial activity against imipenem-sensitive Pseudomonas aeruginosa isolate 1091-05 infected in sc dosed neutropenic-C3H/HeN mouse assessed as mouse survival administered 4 hrs post infection followed by BID dosing for two days measured on day 10
Type: functional
Condition Parameters: isolate 1091-05, sc, read-out: PD50
Each record here notes measured ED50.

Smiles Input	Readout Relation	ED50 (mg/kg)
COCCn1c(-c2cc(=O)c(O)c[nH]2)nn(S(=O)(=O)[N-]C(=O)N2C[C@H](NC(=O)/C(=N\OC(C)(C)C(=O)[O-])c3csc(N)n3)C2=O)c1=O.[Na+].[Na+]	>	70.8
CC(C)(O/N=C(\C(=O)N[C@H]1CN(C(=O)[N-]S(=O)(=O)n2nc(-c3cc(=O)c(O)c[nH]3)n(C[C@H](O)CO)c2=O)C1=O)c1csc(N)n1)C(=O)[O-].[Na+].[Na+]	=	18.6
CC(C)(O/N=C(\C(=O)N[C@H]1CN(C(=O)[N-]S(=O)(=O)n2nc(-c3cc(=O)c(O)c[nH]3)n(C[C@@H]3CCCO3)c2=O)C1=O)c1csc(N)n1)C(=O)[O-].[Na+].[Na+]	>	100
C[C@H](O)Cn1c(-c2cc(=O)c(O)c[nH]2)nn(S(=O)(=O)[N-]C(=O)N2C[C@H](NC(=O)/C(=N\OC(C)(C)C(=O)[O-])c3csc(N)n3)C2=O)c1=O.[Na+].[Na+]	=	15.7
C[C@H](O)Cn1c(-c2cc(=O)c(O)c[nH]2)nn(S(=O)(=O)[N-]C(=O)N2C(=O)[C@@H](NC(=O)/C(=N\OC(C)(C)C(=O)[O-])c3csc(N)n3)[C@@H]2C)c1=O.[Na+].[Na+]	=	21.3

====

Each record here notes measured fraction unbound at 1 µM.
Method Notes: Fraction unbound in mouse plasma at 1 uM by LC-MS/MS analysis
Assay type: ADME, cell-free
Quantity Name: fraction unbound at 1 µM

Smiles Input	Measured
Cn1c(-c2cc(=O)c(O)c[nH]2)nn(S(=O)(=O)[N-]C(=O)N2C[C@H](NC(=O)/C(=N\OC(C)(C)C(=O)[O-])c3csc(N)n3)C2=O)c1=O.[Na+].[Na+]	0.26
C[C@H]1[C@H](NC(=O)/C(=N\OC(C)(C)C(=O)[O-])c2csc(N)n2)C(=O)N1C(=O)[N-]S(=O)(=O)n1nc(-c2cc(=O)c(O)c[nH]2)n(C[C@@H](O)CO)c1=O.[Na+].[Na+]	0.51
CC(C)(O/N=C(\C(=O)N[C@H]1CN(C(=O)[N-]S(=O)(=O)n2nc(-c3cc(=O)c(O)c[nH]3)n(C[C@@H](O)CO)c2=O)C1=O)c1csc(N)n1)C(=O)[O-].[Na+].[Na+]	0.46
